Provide the recorded growth for the entries that follow.
System: SK-MEL-28 melanoma
Assay: NCI-60 one-dose screen, 48 h (100 = growth as untreated, 0 = no growth, -100 = all killed)
Details: 10 µM unless noted
About 83,000 compounds went through this panel and 20% of them were active in at least one assay; those are over-represented in the sample as a whole.
# output: bare number, implied unit %

Asked: # lookup: growth of C=CCNC(=O)/C(=C/c1cccc([N+](=O)[O-])c1)NC(=O)c1ccccc1
Given back: 119

Asked: # lookup: growth of CCc1ccc(-c2nc(SCC(=O)NC3CCCCC3)n[nH]2)cc1
Given back: 108

Asked: # lookup: growth of CC(NNC(=S)N1CCCCCC1)c1ccc2ccccc2n1 (centres undefined)
Given back: 54.7

Asked: # lookup: growth of C[C@H](C(=O)N[C@@H](Cc1ccc(-c2ccccc2)cc1)C(=O)NC1CC(C)(C)N(C)C(C)(C)C1)c1ccc(-c2ccccc2)c(F)c1
Given back: -73

Asked: # lookup: growth of CCCCOP(=O)(OCCCC)C(C(=O)OCC)C(CC(=O)OCC)C(=O)OCC (centres undefined)
Given back: 104

Asked: # lookup: growth of COc1cccc(N2CCN(c3cccc(C)n3)CC2)c1
Given back: 111

Asked: # lookup: growth of COc1ccc(NC(=O)c2ccccc2-c2ccccc2)c(C(N)=O)c1
Given back: 59.7

Asked: # lookup: growth of COc1cc(C2CC(C3C(=O)N(C)C(=O)N(C)C3=O)=NN2c2cc(Cl)cc(Cl)c2)cc(OC)c1OC (centres undefined)
Given back: 101

Asked: # lookup: growth of Cc1cc2ccccn2c1C(=O)c1ccc(C(=O)c2ccccc2)cc1
Given back: 89.7

Asked: # lookup: growth of N/C(=N\C(N)=N\c1nc2ccccc2s1)c1ccnc(Cl)c1
Given back: 62.2

Asked: # lookup: growth of CC(=O)O[C@H]1CC[C@@]2(C)C(=CC[C@@H]3[C@@H]2CC[C@]2(C)C(c4cccnc4)=CC[C@@H]32)C1
Given back: 44.4

Asked: # lookup: growth of N#Cc1c(-c2ccc(F)cc2)n2c(nc1=O)SC(=O)C2=O
Given back: 102

Asked: # lookup: growth of Cc1ccc(-c2csc(N)n2)cc1
Given back: 110

Asked: # lookup: growth of CCCCCCCCCCN1CCC(N2CCCCC2)CC1
Given back: -29.1

Asked: # lookup: growth of CCOc1cc(/C=C/C(=O)CC(=O)/C=C/c2ccc(OC(=O)CNCCN(CC)CC)c(OCC)c2)ccc1OC(=O)CNCCN(CC)CC
Given back: -57.1

Asked: # lookup: growth of O=c1[nH]cc(Nc2cc(Cl)c3nonc3c2[N+](=O)[O-])c(=O)[nH]1
Given back: 83.2

Asked: # lookup: growth of COc1ccc(NC(=O)[C@@H]2C[C@H]2c2ccccc2)c(C(N)=O)c1
Given back: 96.7

Asked: # lookup: growth of C[C@H](C(=O)N[C@@H](Cc1ccc(-c2ccccc2)cc1)C(=O)NC1CC(C)(C)NC(C)(C)C1)c1ccc(-c2ccccc2)c(F)c1
Given back: -77.7

Asked: # lookup: growth of Cc1ccc(-c2c3c(N)c4c(nc3nc3c2c(C)nn3-c2ccccc2)CCC4)cc1
Given back: 70.2

Asked: # lookup: growth of C/C(=C\CCc1ccsc1)CC/C=C(\C)CCCN1CCSCC1
Given back: 94.6

Asked: # lookup: growth of COC(=O)C1(NC(=O)CNC(=O)OCc2ccccc2)CCCC1
Given back: 102

Asked: # lookup: growth of C#C[C@]1(O)CCC2C3CCc4cc(O)ccc4C3CC[C@@]21C (some centres undefined)
Given back: 59.2

Asked: # lookup: growth of Cc1cc(Br)c(C)cc1Br
Given back: 103

Asked: # lookup: growth of COc1ccc(CCN2C(=O)CCC3=C2CCCC3=O)cc1OC
Given back: 108

Asked: # lookup: growth of Cc1cc(-c2ccccc2)cc(C)n1
Given back: 107

Asked: # lookup: growth of CCOC(=O)C(C(=O)OCC)C1CCCCC1
Given back: 106

Asked: # lookup: growth of COc1ccc(C(=O)/C=C/c2cccc(Nc3ccnc4cc(Cl)ccc34)c2)cc1
Given back: 44.6

Asked: # lookup: growth of C(=C1c2ccccc2-c2ccccc21)c1ccccn1
Given back: 81

Asked: # lookup: growth of COc1c(O)cc2c(c1CC=C(C)C)OC(=O)c1c(cc(O)c(CC=C(C)C)c1O)O2
Given back: 80.5

Asked: # lookup: growth of CC[C@@H](C)/C=C(C)/C=C/C(O)=C1\C(=O)N[C@@H](Cc2ccc(OC(=O)[C@@](OC)(c3ccccc3)C(F)(F)F)cc2)C1=O
Given back: 103

Asked: # lookup: growth of Cc1onc(-c2ccccc2Cl)c1C(=O)N[C@@H]1C(=O)N2[C@@H]1SC(C)(C)[C@@H]2C(=O)O
Given back: 117

Asked: # lookup: growth of O=C(/C=C/c1cccc(Nc2ccnc3cc(Cl)ccc23)c1)c1ccc(Cl)cc1
Given back: 71

Asked: # lookup: growth of O=c1oc2c(cc1-c1ccc([N+](=O)[O-])cc1)C(O)Oc1ccccc1-2 (centres undefined)
Given back: 99.4

Asked: # lookup: growth of COc1cc(/C=C/C(=O)CC(=O)/C=C/c2ccc(OC(=O)CCNC34CC5CC(CC(C5)C3)C4)c(OC)c2)ccc1OC(=O)CCNC12CC3CC(CC(C3)C1)C2
Given back: 33.6

Asked: # lookup: growth of CCN(CC)c1ccc(N=C2C=CC(=O)C=C2NC(C)=O)cc1
Given back: 127

Asked: # lookup: growth of CCOC(=O)C1C(=O)NC(C(=O)OCC)(C(=O)OCC)C1CC (centres undefined)
Given back: 123

Asked: # lookup: growth of CC[C@@H](C)/C=C(C)/C=C/C(=O)c1c(O)c(-c2ccc(O)cc2)cn(OC2CC(=O)CCC(C)OC(=O)CC2O)c1=O (some centres undefined)
Given back: 34

Asked: # lookup: growth of CC(C)CC1NC(=O)C(CCCN)NC(=O)C(C(C)C)NC(=O)C2CCCN2C(=O)C(Cc2ccccc2)NC(=O)C(CC(C)C)NC(=O)C(CCCN)NC(=O)C(C(C)C)NC(=O)C2CCCN2C(=O)C(Cc2ccccc2)NC1=O (centres undefined)
Given back: -72.1

Asked: # lookup: growth of CC(NC(N)=S)c1ccccc1 (centres undefined)
Given back: 110
